Tested on: HTT mRNA
Assay: Splicing RT-qPCR assay, HTT canonical (CJ) and alternative (AJ) junction mRNA
Format: cell-based
Conditions: Homo sapiens, increase in AJ mRNA, A673 or K562 cells, 24 hours treatment
Structures can show the parent of a compound that is named as a salt.
measurement.name: AC50

Example results:
> print(dat)
                                   compound  measurement.name  recorded.value
1  Cc1cn2cc(-c3cc4ncn(C5CCNCC5(F)F)c(=O)c4s3)cc(F)c2n1 (centres unmarked)              AC50      1 to 10 µM
2  Cc1cn2nc(-c3cc4ccn(C5CCNCC5)c(=O)c4s3)cc(C)c2n1              AC50     0.1 to 1 µM
3  Cc1cn2cc(-c3nc4sc(C5CCN(C)CC5)cc4c(=O)[nH]3)cc(F)c2n1              AC50         > 10 µM
4  Cc1cn2cc(-c3cc4ncn(C5CNCCC5=O)c(=O)c4s3)cc(F)c2n1 (centres unmarked)              AC50         > 10 µM
5  Cc1cn2cc(-c3cc4ncn(C5CCNCC5)c(=O)c4s3)cc(F)c2n1              AC50        < 0.1 µM
6  Cn1cc2cc(-c3nc4ncn(C5CCNCC5)c(=O)c4s3)c(O)cc2n1 [Compound 253, hydrochloride]              AC50      1 to 10 µM
7  Cc1cn2cc(-c3cc4ncn([C@H]5CCNC[C@H]5F)c(=O)c4s3)cc(F)c2n1 (relative stereo)              AC50      1 to 10 µM

Attention now turns to another entry.
Form field: reported AC50 of Cc1cn2cc(N3CCc4cc(C5CCNCC5)sc4C3=O)cc(F)c2n1
> 10 µM
